pest or weed control at 250 g/ha listing for selected compounds.
- Tested on: velvetleaf (Abutilon theophrasti)
- procedure-summary: Test G Post-Emergence Protocol
- Type: in vivo
- test-conditions: Abutilon theophrasti, post-emergence, 312 h, 250 g ai/ha, evaluated after 13 days, read-out: damage to plant, Velvetleaf (100=total damage to plant; 0=no damage to plant)
# output: bare number, implied unit %

[
  {
    "compound": "CN1C[C@@H](c2ccc(C(F)(F)F)cc2)[C@H](C(=O)Nc2cncc(Cl)n2)C1=O (racemic)",
    "target-system": "velvetleaf (Abutilon theophrasti)",
    "pest or weed control at 250 g/ha (%)": 0
  },
  {
    "compound": "CN1C[C@H](c2ccc(C(F)(F)F)cc2)[C@@H](C(=O)Nc2ccc(C(F)(F)F)c(F)c2F)C1=O (racemic)",
    "target-system": "velvetleaf (Abutilon theophrasti)",
    "pest or weed control at 250 g/ha (%)": 0
  },
  {
    "compound": "CN1C[C@H](c2ccc3ccccc3c2)[C@@H](C(=O)Nc2cccc(F)c2F)C1=O (racemic)",
    "target-system": "velvetleaf (Abutilon theophrasti)",
    "pest or weed control at 250 g/ha (%)": 0
  }
]

Q: Fill in: pest or weed control at 250 g/ha of Cc1c(NC(=O)[C@H]2C(=O)N(C)C[C@@H]2c2ccc(C(F)(F)F)cc2)cccc1[N+](=O)[O-] (racemic) is ___
Ans: 0

Q: Fill in: pest or weed control at 250 g/ha of CSc1ccccc1NC(=O)[C@@H]1C(=O)N(C)C[C@H]1c1ccc(C(F)(F)F)nc1 (racemic) is ___
Ans: 20

Q: Fill in: pest or weed control at 250 g/ha of CN1C[C@H](c2ccc(C(F)(F)F)cc2)[C@@H](C(=O)Nc2ncccc2[N+](=O)[O-])C1=O (racemic) is ___
Ans: 10

Q: Fill in: pest or weed control at 250 g/ha of Cc1cccc(NC(=O)[C@@H]2C(=O)N(C)C[C@H]2c2ccc(C(F)(F)F)cc2)c1[N+](=O)[O-] (racemic) is ___
Ans: 0

###

- Tested on: giant foxtail (Setaria faberii)
- procedure-summary: Test A postemergence
- Type: in vivo
- test-conditions: Setaria faberi, post-emergence, 240 h, 125 g ai/ha, postemergence; visual injury on 0 to 100 scale (0 no effect, 100 complete control), approx. 10 d; read-out: Foxtail, Giant plant response rating
pest or weed control at 125 g/ha listing for selected compounds.
# output: bare number, implied unit %

Solved cases (2 shown):
[
  {
    "compound": "O=C(Nc1ccccc1F)[C@H]1C(=O)N(C2CC2)CC[C@@H]1c1ccccc1 [Compound 1031]",
    "endpoint-label": "pest or weed control at 125 g/ha",
    "u": "%",
    "quantitative-result": 0
  },
  {
    "compound": "CN1C[C@H](c2cc(F)cc(F)c2)[C@@H](C(=O)Nc2ncccc2Cl)C1=O [Compound 1097]",
    "endpoint-label": "pest or weed control at 125 g/ha",
    "u": "%",
    "quantitative-result": 0
  }
]

Q: Provide the documented pest or weed control at 125 g/ha with giant foxtail (Setaria faberii) as the system for CSc1ccccc1NC(=O)[C@H]1C(=O)N(C)C[C@@H]1c1ccc(F)c(OC(C)C)c1 [Compound 1076]
Ans: 50

###

- Test system: giant foxtail (Setaria faberii)
- procedure-summary: Test A preemergence
- Assay type: in vivo
- test-conditions: 500 g ai/ha, preemergence; 0 to 100 scale, 0 = no effect, 100 = complete control
endpoint-label: Plant response rating, Foxtail, Giant
Answer with the value's number alone.

Solved cases (4 shown):
[
  {
    "molecule": "CN1CC(c2cccc(C(F)(F)F)c2)C(C(=O)Nc2cccc(F)c2F)C1=O (stereo not drawn)",
    "endpoint-label": "Plant response rating, Foxtail, Giant",
    "quantitative-result": 90
  },
  {
    "molecule": "Cc1ccc(C2CNC(=O)C2C(=O)Nc2ccccc2F)cc1C(F)(F)F (racemic)",
    "endpoint-label": "Plant response rating, Foxtail, Giant",
    "quantitative-result": 90
  },
  {
    "molecule": "O=C1NCC(c2cccc(OC(F)(F)C(F)F)c2)C1C(=O)Nc1ccccc1Cl (racemic)",
    "endpoint-label": "Plant response rating, Foxtail, Giant",
    "quantitative-result": 90
  },
  {
    "molecule": "O=C1NCC(c2cccc(O)c2)C1C(=O)Nc1cccc(F)c1F (racemic)",
    "endpoint-label": "Plant response rating, Foxtail, Giant",
    "quantitative-result": 0
  }
]

Q: Fill in: Plant response rating, Foxtail, Giant of CN1CC(c2ccc(C(F)(F)F)cc2)C(C(=O)Nc2ccccc2S(C)(=O)=O)C1=O (stereo not drawn) is ___
Ans: 90

Q: Fill in: Plant response rating, Foxtail, Giant of O=C1NCC(c2cc(F)c(F)cc2F)C1C(=O)Nc1ccc(F)c(F)c1F (stereo not drawn) is ___
Ans: 90

###

pest or weed control at 62.5 g/ha listing for selected compounds.
- Test system: ivy-leaved morning glory (Ipomoea hederacea)
- procedure-summary: Test G Pre-Emergence Protocol
- Assay type: in vivo
- test-conditions: Ipomoea, pre-emergence, 312 h, 62.5 g ai/ha, evaluated after 13 days, 100=total damage to plant, 0=no damage to plant, read-out: Morningglory, Ivy-leaved damage rating
# output: bare number, implied unit %

Solved cases (3 shown):
[
  {
    "compound": "Cc1cc(C2CN(C)C(=O)C2C(=O)Nc2cccc(F)c2F)cc(C)c1Cl (stereo not shown) [Compound 1700]",
    "target-system": "ivy-leaved morning glory (Ipomoea hederacea)",
    "endpoint-label": "pest or weed control at 62.5 g/ha",
    "quantitative-result": 10
  },
  {
    "compound": "CCOc1ccc(C2CN(C)C(=O)C2C(=O)Nc2cccc(F)c2F)cc1F (stereo not shown) [Compound 1717]",
    "target-system": "ivy-leaved morning glory (Ipomoea hederacea)",
    "endpoint-label": "pest or weed control at 62.5 g/ha",
    "quantitative-result": 0
  },
  {
    "compound": "CN1C[C@H](c2ccc(Cl)cc2)[C@@H](C(=O)Nc2ccc(F)nc2F)C1=O [Compound 1811]",
    "target-system": "ivy-leaved morning glory (Ipomoea hederacea)",
    "endpoint-label": "pest or weed control at 62.5 g/ha",
    "quantitative-result": 20
  }
]

Could you now look at the following compound, please?
Q: Fill in: pest or weed control at 62.5 g/ha of CN1C[C@H](c2cccc(C(F)(F)F)c2)[C@@H](C(=O)Nc2ccc(O)cc2F)C1=O (racemic) [Compound 1785] is ___
Ans: 0

###

- Test system: corn (Zea mays)
- procedure-summary: Test G Pre-Emergence Protocol
- Type: in vivo
- test-conditions: Zea mays, pre-emergence, 312 h, 62.5 g ai/ha, evaluated after 13 days, 100=total damage to plant, 0=no damage to plant, read-out: plant damage rating, Corn
endpoint-label: plant injury at 62.5 g/ha (%)
# output: bare number, implied unit %

[
  {
    "compound": "Cc1cnc(NC(=O)[C@@H]2C(=O)N(C)C[C@H]2c2ccc(C(F)(F)F)cc2)nc1 (racemic)",
    "plant injury at 62.5 g/ha / %": 0
  },
  {
    "compound": "Cc1cc(NC(=O)[C@@H]2C(=O)N(C)C[C@H]2c2ccc(C(F)(F)F)cc2)ccc1F (racemic)",
    "plant injury at 62.5 g/ha / %": 0
  },
  {
    "compound": "CN1C[C@@H](c2ccc(C(F)(F)F)cc2)[C@H](C(=O)Nc2sccc2C#N)C1=O (racemic)",
    "plant injury at 62.5 g/ha / %": 0
  }
]

Q: Fill in: plant injury at 62.5 g/ha of Cc1nc(F)ccc1[C@@H]1CN(C)C(=O)[C@H]1C(=O)Nc1cccc(F)c1F (racemic) is ___
Ans: 0

Q: Fill in: plant injury at 62.5 g/ha of CN1C[C@H](c2ccc(C(F)(F)F)cc2)[C@@H](C(=O)Nc2ncccc2[N+](=O)[O-])C1=O (racemic) is ___
Ans: 0

Q: Fill in: plant injury at 62.5 g/ha of CN1C[C@@H](c2ccc(C(F)(F)F)cc2)[C@H](C(=O)Nc2cc(Cl)n[nH]2)C1=O (racemic) is ___
Ans: 0

Q: Fill in: plant injury at 62.5 g/ha of CN1C[C@H](c2ccc(C(F)(F)F)cc2)[C@@H](C(=O)Nc2ccc(C(F)(F)F)c(F)c2F)C1=O (racemic) is ___
Ans: 0

Q: Fill in: plant injury at 62.5 g/ha of Cc1cccc(NC(=O)[C@@H]2C(=O)N(C)C[C@H]2c2ccc(C(F)(F)F)cc2)c1Br (racemic) is ___
Ans: 0

Q: Fill in: plant injury at 62.5 g/ha of CN1C[C@H](c2ccc(C(F)(F)F)cc2)[C@@H](C(=O)Nc2ccccc2S(C)(=O)=O)C1=O (racemic) is ___
Ans: 0

Q: Fill in: plant injury at 62.5 g/ha of CN1C[C@H](c2cccc(C#N)c2)[C@@H](C(=O)Nc2ccccc2F)C1=O (racemic) is ___
Ans: 0
